Source listed as patent US20110287023A1.

# study-system: recombinant HMG1 produced in E. coli as a calmodulin binding protein (CBP) fusion (human)
# Sequence (P09429 whole entry, the tested form may be a part): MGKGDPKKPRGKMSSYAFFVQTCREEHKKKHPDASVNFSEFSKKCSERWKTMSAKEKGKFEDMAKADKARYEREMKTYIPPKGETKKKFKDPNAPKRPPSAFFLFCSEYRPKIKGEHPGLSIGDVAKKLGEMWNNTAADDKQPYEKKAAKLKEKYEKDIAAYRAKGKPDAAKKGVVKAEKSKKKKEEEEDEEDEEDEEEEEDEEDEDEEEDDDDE
# experiment-notes: cell-based or functional assay
Below: a set of entries, each annotated with reported IC50 IL-1β.
Numbers only; they are read as µg/mL.

1) human anti-HMG1 antibody G20 (antibody, IgG1, V domains shown, full length IgG1 made from a human Fab phage clone) VH: EVQLLESGGGLVQPGGSLRLSCAASGFTFSWYDMFWVRQAPGKGLEWVSWISPSGGYTKYADSVKGRFTISRDNSKNTLYLQMNSLRAEDTAMYYCARSGLDYYDSSGYLDAFDIWGQGTMVTVSS VL: DIQMTQSPSSVSASVGDRVTITCRASQDVSIWLAWYQQKPGKAPKLLIFGASRLQSGVPSRFSGSRSGADFTLTIDSVQPEDFASYYCQQADSFPLTFGGGTKVEIK :: 0.4
2) human anti-HMG1 antibody G4 (antibody, IgG1, V domains shown, full length IgG1 made from a human Fab phage clone; also called ATCC PTA-6258) VH: EVQLLESGGGLVQPGGSLRLSCAASGFTFSWYDMTWVRQAPGKGLEWVSSISPSGGYTKYADSVKGRFTISRDNSKNTLYLQMNSLRAEDTAVYYCTTEFYDYLDVWGKGTTVTVSS VL: DIQMTQSPGTLSLSPGEGATLSCRASQSVSSTYLAWYQQKPGQAPRLLIYEASKRATGTPARFSGSGSGTDFTLSISSLEPEDFAVYYCQHRHNWPPQWTFGQGTKVEVK :: 5.01

Okay, next one:
The binder listed as human anti-HMG1 antibody S17 (antibody, IgG1, V domains shown, full length IgG1 made from a human Fab phage clone) VH: EVQLLESGGGLVQPGGSLRLSCAASGFTFSYYDMHWVRQAPGKGLEWVSRISPSGGYTWYADSVKGRFTISRDNSKNTLYLQMNSLRAEDTAVYYCTRGRYTSGWHEYFDPWGQGTLVTVSS VL: DIQMTQSPSSLSASVGDRVTITCRASQSIGTYLNWYQQKPGTAPKVLIYAASSLQSGVPSRFSGSGSGTDFTLTISSLQPEDFSTYYCQQSYNTPRTFGQGTKLEIK has a reported IC50 IL-1β of 0.0809
